Target: T1, human PD-1 (#PD1-H82E4, AcroBiosystems) (human, UniProt Q15116 25-167)
T1 construct: bought
T1 sequence (Q15116 25-167 limits assumed): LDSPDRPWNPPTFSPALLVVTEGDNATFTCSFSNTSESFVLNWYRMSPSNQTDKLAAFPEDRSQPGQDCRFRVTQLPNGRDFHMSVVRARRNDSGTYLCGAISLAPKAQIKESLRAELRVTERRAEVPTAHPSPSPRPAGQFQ
Assay: SPR, PD-1 on captured IgG1
Kd strictly under 0.6 nM means Met; at 0.6 nM or over means Not met.

{"binder": "KYC847 (antibody, human IgG1, V domains shown, human IgG1) VH: EVQLLESGGGLVQPGGSLRLSCAASGFTFSINAMTWVRQAPGKGLEWVSTISGSGFSTYYADSLKGRFTISRDNSKNTLYLQMNSLRAEDTAVYYCAKEVYGDYWGQGTLVTVSS VL: RSVLTQPPSASGTPGQRVSISCSGASSNIGSQSVFWYQQLPGTAPKLLIYSNNQRPSGVPDRFSGSKSGTSASLAISGLRSEDEADYYCAAWDDSLTIWVFGGGTKLTVL", "label value": "Met"}
{"binder": "FHX509 (antibody, human IgG1, V domains shown, human IgG1) VH: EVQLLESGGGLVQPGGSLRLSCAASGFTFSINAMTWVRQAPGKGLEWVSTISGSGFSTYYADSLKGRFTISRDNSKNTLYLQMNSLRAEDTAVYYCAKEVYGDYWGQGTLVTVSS VL: RSVLTQPPSASGTPGQRVSISCSGASSNIGSQSVFWYQQLPGTAPKLLIYSNNQRPSGVPDRFSGSKSGTSASLAISGLRSEDEADYYCAAWDDSLSAWVFGGGTKLTVL", "label value": "Not met"}
{"binder": "JOH712 (antibody, human IgG1, V domains shown, human IgG1) VH: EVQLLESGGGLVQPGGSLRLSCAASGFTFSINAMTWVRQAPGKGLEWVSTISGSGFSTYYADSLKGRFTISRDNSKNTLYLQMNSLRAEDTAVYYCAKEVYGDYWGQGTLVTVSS VL: RSVLTQPPSASGTPGQRVSISCSGASSNIGSQSVFWYQQHPGTAPKLLIYSNNQRPSGVPDRFSGSKSGTSASLAISGLRSEDEADYYCAAWDDSLSIWVFGGGTKLTVL", "label value": "Met"}
{"binder": "SSR010 (antibody, human IgG1, V domains shown, human IgG1) VH: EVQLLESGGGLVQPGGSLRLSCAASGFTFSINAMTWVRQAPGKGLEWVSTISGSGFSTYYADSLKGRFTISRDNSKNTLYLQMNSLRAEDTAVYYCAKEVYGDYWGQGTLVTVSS VL: RSVLTQPPSASGTPGQRVSISCSGASSNVGSQSVFWYQQLPGTAPKLLIYSNNQRPSGVPDRFSGSKSGTSASLAISGLRSEDEADYYCAAWDDSLSIWVFGGGTKLTVL", "label value": "Met"}

Where do these numbers come from? They come from patent EP4671273A1.
